# experimentDescription: PhoP-dependent GFP reporter repression – Salmonella Typhimurium, primary screen (AID 1863);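 also: 0% = low Mg2+ inducing control and 100% = high Mg2+ repressing control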
# conditionSummary: S. Typhimurium PhoP-regulated promoter GFP reporter, 4 h; at 50 µM; active compounds read high
Out of some 300,000 compounds screened, about 480 (0.16%) were called active. A selection follows. Results with a measured potency or affinity are listed apart.
inhibition for assorted compounds
Give just the number in %; leave the unit off.

# input compound: O=C(Cn1nc(CNc2ccc(Cl)cc2)[n+]2c1CCCCC2)c1ccccc1 ; wanted: its inhibition
8.62

Query: inhibition; subject: Nc1nc(N2CCCCC2)nc2ccccc12
0.383

Any idea what its inhibition is? The compound is Nc1nc(N2CCOCC2)nc2ccccc12
19.6

For the compound shown here, O=C(Cn1nc(CNc2ccc(Cl)cc2)[n+]2c1CCCCC2)c1ccc(Cl)cc1 , give the reported inhibition.
7.8

Need inhibition of Cc1ccc(S(=O)(=O)N2CCC(C(=O)NCCN3CCOCC3)CC2)cc1C , thanks.
-3.49

Here's the next entry for you.
Item COc1ccc(-c2csc(NC(=O)COC(=O)c3ccco3)n2)cc1 has what recorded inhibition?
5.57
